Target: SARS-CoV-2 Spike Protein (RBD) (R319-F541).hFc (SARS-CoV-2)
Test: Luminex beads, supernatant
This listing pairs binders with measured MFI.
A number alone suffices; assume MFI.

Example binders with recorded MFI:
mAb10985 (antibody, V domains shown) VH: EVQLVESGGGLVQPGRSLRLSCAASGFTFDDYAMHWVRQAPGKGLEWVSGISWNRGSIGYADSVKGRFTISRDNAKNSLYLQMSSLRAEDTALYYCAKDGERWDSVVVPSARNGMDVWGQGTTVTVSS VL: QSVLTQPPSVSGAPGQRVTISCTGSSSNIGAGYDVHWYQQLPGTAPKLLIYGNSNRPSGVPDRFSGSKSGTSASLAITGLQAEDEADYYCQSYDSSLSGSYVFGTGTKVTVLG : 31100
mAb10989 (antibody, V domains shown) VH: QVQLVQSGAEVKKPGASVKVSCKASGYIFTGYYMHWVRQAPGQGLEWMGWINPNSGGANYAQKFQGRVTLTRDTSITTVYMELSRLRFDDTAVYYCARGSRYDWNQNNWFDPWGQGTLVTVSS VL: QSALTQPASVSGSPGQSITISCTGTSSDVGTYNYVSWYQQHPGKAPKLMIFDVSNRPSGVSDRFSGSKSGNTASLTISGLQAEDEADYYCSSFTTSSTVVFGGGTKLTVLG : 22400
mAb10935 (antibody, V domains shown) VH: EVQLVESGGGLVQPGGSLRLSCAASGFTVSSNYMSWVRQAPGKGLEWVSLIYSGGSTYYADSVKGRFTISRHNSKNTLYLQMNSLRSEDTAVYYCARVPLGDYYYGMDVWGQGTTVTVSS VL: DIQMTQSPSSLSASVGDRVTITCQASQDINKYLNWYQQKPGKAPKLLIYDASNLETGVPSRFSGSGSGTDFTFTISSLQPEDIATYYCQQSDNLPLTFGGGTKVEIKR : 35600

Alright, here's another binder for you.
// MFI value for mAb10913 (antibody, V domains shown) VH: EVQLVESGGGLVQPGGSLRLSCAASGFTFRNYEMNWVRQAPGKGLEWVSYITSSGSTMYYADSVKGRFTISRDNAKNSLYLQMNSLRAEDTAVYYCARDGFYYYYAMDVWGQGTTVTVSS VL: QSVLTQPPSVSAAPGQKVTISCSGSSSNIGNNYVSWYQQLPGTAPKLLIYDNNKRPSGIPDRFSGSKSGTSATLGITGLQTGDEADYYCGTWDSSLSVGRVFGTGTKVTVLG : 31900
